system_name: T1, his-tagged human PVRIG (h-PVRIG-his) recombinant protein (human, UniProt Q6DKI7 41-171, limits assumed)
T1 construct: bought from Acrobiosystems; also called Human PVRIG-his; human PVRIG recombinant protein; not shown: his tag
T1 sequence (looked up): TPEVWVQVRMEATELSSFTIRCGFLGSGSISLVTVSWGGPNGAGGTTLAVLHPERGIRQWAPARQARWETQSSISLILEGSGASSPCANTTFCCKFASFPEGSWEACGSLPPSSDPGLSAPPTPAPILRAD
assay_procedure: ELISA, coated antigen
# EC50 listing for each entry below
quantity_name: EC50 (nM)

binder	units_text	observed_measurement
anti-PVRIG antibody 151 (antibody, human IgG4 S228P, F234A L235A, V domains shown, no light chain) VH: HVQLVESGGGSVQAGGSLRLSCVASASGFTYRPYCMAWFRQAPGKEREAVAGIDIFGGTTYADSVKGRFTASRDNAGFSLFLQMNDLKPEDTAMYYCAAGDSPDGRCPPLGQGLNYWGQGTQVTVSS	nM	2.15
anti-PVRIG antibody 38 (antibody, human IgG4 S228P, F234A L235A, V domains shown, no light chain) VH: QVQLVESGGGSVQAGGSLRLSCAASPSTYGPSDMAWFRQAPGKQREGVATISAAGRLTYYTDSVRGRFTISRDNAKNTMYLQMNSLKPEDTAMYYCAADFAGGSSLFADYKYWGQGTQVTVSS	nM	0.26
